# System: SF-539 CNS
# assay info: NCI tumour cell line growth inhibition, 48 h
A collection of compounds and their measured TGI

Before answering, review these 5 worked examples.
For "Nc1ncc(CN2CCCC2)c(-c2ccccc2O)n1" the compound record lists TGI as > 750 µM

For "C#Cc1c(C)c(/C=C/C(C)=C\C(=O)OC)n(C)c1C" the compound record lists TGI as > 100 µM

For "COC(=O)[C@]12CC[C@@H](C)[C@H](C)[C@@H]1C1=CC[C@@H]3[C@@]4(C)C[C@@H](OC(C)=O)[C@H](OC(C)=O)[C@@](C)(COC(C)=O)[C@@H]4[C@H](O)C[C@@]3(C)[C@]1(C)CC2" the compound record lists TGI as > 100 µM

For COc1ccc(C(CC(=O)c2cccs2)C(=O)c2ccc3c(c2)OCO3)cc1 (stereo not given) the compound record lists TGI as > 100 µM

For "O=c1[nH]nc(-c2cccc([N+](=O)[O-])c2)[nH]1" the compound record lists TGI as > 100 µM

New cases:
For "NC1=Nc2ncccc2C(=O)NN1" the compound record lists TGI as > 10 µM

For "CCN(CC)C(=O)Cc1[nH][nH]c(=O)c1C(=O)N(CC)CC" the compound record lists TGI as > 100 µM

For CCC(CCCC[C@H]1CC[C@@H]2CC(=O)C[C@H]12)OC (stereo not given in full) the compound record lists TGI as > 100 µM

For N/N=C1/C(=O)N(c2ccc(Cl)cc2)C(=O)C(=O)C1c1nc2ccccc2s1 (stereo not given) the compound record lists TGI as > 100 µM

For "N#Cc1ccc2c(-c3ccnc(NC4CC4)n3)c(-c3ccc(F)cc3)nn2c1" the compound record lists TGI as > 25 µM

====

# Tested on: HCT-15 colon
# assay info: NCI tumour cell line growth inhibition, 48 h
A collection of compounds and their measured TGI
Entry rule: numbers only, all in µM.

Before answering, review these 2 worked examples.
For NP1(Oc2ccc(F)cc2)=NP(N)(Oc2ccc(F)cc2)=NP(Oc2ccc(F)cc2)(Oc2ccc(F)cc2)=N1 (centres undefined) the compound record lists TGI as 14.6

For CCCCCn1sc(=O)n(Cc2ccc(CNC(=O)C(C)c3ccc(CC(C)C)cc3)cc2)c1=O (centres undefined) the compound record lists TGI as 1.62

Moving on to the next compound.
For "CCOC(=O)c1c(CN2CCCCC2)nc2ccc(Cl)cc2c1-c1ccccc1" the compound record lists TGI as 47.9

====

A collection of molecules and their measured TGI
# System: NCI-H522 lung
# assay info: NCI tumour cell line growth inhibition, 48 h

For Cc1ccc([N+](=O)[O-])cc1S(=O)(=O)Nc1ccc(C2=NN(S(=O)(=O)c3cc([N+](=O)[O-])ccc3C)C(c3ccccc3O)C2)cc1 (stereo not given) the molecule record lists TGI as > 100 µM

For CCC(C)C(NC(=O)c1cccc2c(=O)c3ccccc3[nH]c12)C(=O)O (stereo not given) the molecule record lists TGI as > 100 µM

For COc1cc(O)c(C(=O)C2Cc3ccccc32)c(OC)c1 (stereo not given) the molecule record lists TGI as > 100 µM

For "CCc1nnc2sc(-c3ccc(-c4ccccc4[N+](=O)[O-])o3)nn12" the molecule record lists TGI as > 100 µM

New cases:
For "C=C(CN1CCN(c2cc(C(F)(F)F)cc(C(F)(F)F)c2)CC1)c1ccc(C(=O)Nc2ccccc2N)cc1" the molecule record lists TGI as > 100 µM

====

A collection of compounds and their measured TGI
# System: A549 NSCLC
# assay info: NCI tumour cell line growth inhibition, 48 h

Before answering, review these 5 worked examples.
The compound CSCSCC(CO)NC(=O)/C=C/c1c(C)[nH]c(=O)[nH]c1=O (stereo unspecified) , when measured on A549 NSCLC, yielded TGI of > 100 µM

The compound COC1=CC(=O)[C@@]2(C)C(C)[C@H](c3ccccc3)[C@H]2C1=O (stereo partly specified) , when measured on A549 NSCLC, yielded TGI of > 100 µM

The compound "Cc1c2ccncc2c(C)c2c1[nH]c1ccc(O)cc12" , when measured on A549 NSCLC, yielded TGI of 0.397 mg/L

The compound "c1cc(CSP234N5CCN2CCN3CCN4CC5)cc(CSP234N5CCN2CCN3CCN4CC5)c1" , when measured on A549 NSCLC, yielded TGI of > 100 µM

The compound "COC(=O)[C@@H]1CN(C(=O)Cc2ccccc2)C(=O)N1" , when measured on A549 NSCLC, yielded TGI of > 100 µM

Moving on to the next compound.
The compound "CCOC(=O)/C(C(=O)c1ccc[nH]1)=C1/CCCN1C" , when measured on A549 NSCLC, yielded TGI of > 100 µM

====

# Tested on: EKVX NSCLC
# assay info: NCI tumour cell line growth inhibition, 48 h
measurement label: TGI

The molecule O=C1c2ccccc2CC12Cc1ccc3c(c1C2=O)CCCC3 (stereo not drawn) , when measured on EKVX NSCLC, yielded TGI of > 100 µM

The molecule COc1cccc(C2c3cc4c(cc3OC(NNS(=O)(=O)c3ccc(C)cc3)C2C)OCO4)c1O (stereo not drawn) , when measured on EKVX NSCLC, yielded TGI of > 100 µM

Moving on to the next molecule.
The molecule CC(NC(CC12CC3CC(CC(C3)C1)C2)C(N)=O)c1ccccc1 (stereo not drawn) , when measured on EKVX NSCLC, yielded TGI of > 100 µM

====

# Test system: MALME-3M melanoma
# assay info: NCI tumour cell line growth inhibition, 48 h
A collection of compounds and their measured TGI
Entry rule: numbers only, all in µM.

Before answering, review these 5 worked examples.
For CNC(=O)OC1/C(C)=C\C(C)C(O)C(OC)CC(C)CC2=C(OC)C(=O)C=C(C2=O)N(C)C(=O)/C(C)=C/C=C\C1OC (configuration not stated) the compound record lists TGI as 27.1

For "COc1cc2c3c(c4ccc(O)cc4c2cc1OC)[C@@H](O)[C@@H]1CCCN1C3" the compound record lists TGI as 0.00314

For "O=C1N[C@@H]([C@H]2CC[C@H](Cl)CN2)C(=O)N[C@H]1[C@H]1CC[C@H](Cl)CN1" the compound record lists TGI as 8.59

For "O=[N+]([O-])C(/C=C(\Cl)[N+](=O)[O-])=C(N1CCOCC1)N1CCOCC1" the compound record lists TGI as 70.3

For Cc1ccccc1NC(=O)C(=O)C(C(=O)c1ccccc1F)C1OC(=O)c2ccccc21 (configuration not stated) the compound record lists TGI as 95.1

New cases:
For "Cc1c(CCCl)c(Cl)n2c(nc3ccccc32)c1C#N" the compound record lists TGI as 2.62

For C1CCC(CC2CCC(NC3=NCCO3)CC2)CC1 (configuration not stated) the compound record lists TGI as 29.7

For CC(NC(CC12CC3CC(CC(C3)C1)C2)C(N)=O)c1ccccc1 (configuration not stated) the compound record lists TGI as 34.3

For CCOC(=O)C1=C(C)N(NC(=O)Nc2ccccc2)C2(N)N(NC(=O)Nc3ccccc3)C(C)=C(C(=O)OCC)C12C#N (configuration not stated) the compound record lists TGI as 30.6

For "Oc1ccccc1/C=N\NC(=S)Nc1ccc(F)cc1" the compound record lists TGI as 8.35

====

# Test system: U251 CNS
Hi! Could you answer with just one of these? TRUE (active), FALSE (inactive)

Example entries and their recorded answers appear below.
q: Fill in: this test's call for "CN1CCN(Cc2ccc(NC(=O)c3cncc(C#Cc4c(N)ncc5ccccc45)c3)cc2C(F)(F)F)CC1" is ___
a: FALSE

q: Fill in: this test's call for "O=C(/C=C/c1ccco1)Nc1ncc(Cc2cc(Cl)ccc2Cl)s1" is ___
a: TRUE

q: Fill in: this test's call for "COc1cccc(/C=C\C(=O)c2ccccc2)c1" is ___
a: FALSE

New cases:
q: Fill in: this test's call for "COc1ccc(/C(=C(\c2ccccc2)[N+](=O)[O-])c2ccc(OCCN3CCCC3)cc2)cc1" is ___
a: FALSE

q: Fill in: this test's call for "COC(=O)c1sc(-n2cnc3cc(OC)c(OC)cc32)cc1OCc1ccccc1C(F)(F)F" is ___
a: FALSE

q: Fill in: this test's call for O=C(CC1(O)C(=O)Nc2ccc(Cl)cc21)c1ccc(C(=O)NCC2CCC3(CC2)OOC2(CCCCC2)OO3)cc1 (stereo unspecified) is ___
a: FALSE

====

# Tested on: SK-MEL-28 melanoma
# assay info: NCI tumour cell line growth inhibition, 48 h
A collection of compounds and their measured TGI

The compound "COc1ccc([C@@H]2[C@@H](Cl)C(=O)N2c2cc(OC)c(OC)c(OC)c2)cc1C" , when measured on SK-MEL-28 melanoma, yielded TGI of > 100 µM

The compound "CSc1ccc(-c2cn3ccsc3n2)cc1" , when measured on SK-MEL-28 melanoma, yielded TGI of > 100 µM

New cases:
The compound "CSC(SC)=C(C#N)C(=O)Nc1ccc(Cl)cc1" , when measured on SK-MEL-28 melanoma, yielded TGI of > 100 µM

Source listed as PubChem BioAssay (NCI).
